biological target: Schistosoma mansoni thioredoxin glutathione reductase (TGR); test: qHTS Assay for the Inhibitors of Schistosoma Mansoni Peroxiredoxins; conditions: purified TGR, DTNB reduction, TNB absorbance 405 nm; series mostly up to 114 µM; further: nearly all actives have a fitted effect of over 60% in size; further: potency means the concentration at half of the fitted maximal effect
Screen size: about 360,000 compounds; about 11,000 (3.1%) were called active. Inconclusive results (about 4%) are left out. The list comes from a sample in which actives are over-represented; it also holds close analogues and randomly drawn compounds.
readout_label: Potency

Worked set:
Input line: Name the recorded Potency for `Cc1cc(C)n2nc(CNS(=O)(=O)c3c(F)c(F)c(F)c(F)c3F)nc2n1` .
Output line: 17.8 µM (active)

Input line: Given the compound `O=C(Nc1ccc(C(=O)O)cc1)/C(=C\c1ccccc1)NC(=O)c1ccc(Br)cc1` , what is its reported Potency?
Output line: inactive

Input line: Given the compound `Cn1nc(-c2ccccc2)c(CO)c1Sc1ccccc1` , what is its reported Potency?
Output line: inactive

Input line: // lookup Potency for Cc1ccc(C)c(NC(CC(=O)c2ccccc2)C(=O)OCC(=O)c2cccs2)c1 (centres undefined)
Output line: 12.6 µM (active)

Input line: Given the compound `Cc1nc2ccccc2c(-c2ccccc2)c1C(=O)c1ccccc1` , what is its reported Potency?
Output line: inactive

Input line: Item under review: `Cc1ccc(-n2c(-c3ccc(Cl)cc3)n[nH]c2=S)cc1` . Reported Potency?
Output line: inactive

Others:
Input line: Param item = `Cc1nccc(-c2ccc(-n3c(C)ccc3C)cc2)n1` ; retrieve measured Potency.
Output line: 39.8 µM (active)

Input line: Entry `CCOc1ccccc1NC(=O)Cn1c2ncccc2c(=O)n1-c1ccc(C)c(C)c1` : reported Potency = ?
Output line: inactive

Input line: Form field: reported Potency of `C=C(C)C(=O)O[C@H]1C/C(C)=C\C(=O)/C=C(\C)[C@H](O)[C@@H]2OC(=O)C(=C)[C@@H]21`
Output line: 3.55 µM (active)

====

molecular target: Schistosoma mansoni thioredoxin glutathione reductase (TGR) (UniProt Q962Y6); assay: qHTS Assay for the Inhibitors of Schistosoma Mansoni Peroxiredoxins; settings: purified TGR, DTNB reduction, TNB absorbance 405 nm; series mostly up to 114 µM; further: nearly all actives have a fitted effect of over 60% in size; further: potency means the concentration at half of the fitted maximal effect
About 11,000 (3.1%) of roughly 360,000 compounds were called active. Another 4% or so got no clear call; they are omitted. This excerpt belongs to a sample that is enriched for actives.
readout_label: Potency

Examples with their reported Potency follow.
Input line: Quick one: Potency for `CCOc1ccc(NC(=O)Cn2c(=O)n(CCCC(=O)NCc3ccc4c(c3)OCO4)c(=O)c3ccccc32)cc1` ?
Output line: inactive

Input line: // query Potency value for entry `COc1cccc(C2Nc3cccc4cccc(c34)N2)c1`
Output line: 20 µM (active)

Input line: Reported Potency for `Cc1ccc(C2Nc3cccc4cccc(c34)N2)cc1` : what is it?
Output line: 17.8 µM (active)

Input line: What value of Potency has been reported for the following molecule? CC(=O)N1CCc2cc(S(=O)(=O)NC(Cc3ccccc3)C(=O)NCc3ccc(C)cc3)ccc21 (stereo not given)
Output line: inactive

Input line: I have this molecule here, CCOC(=O)c1ccc(NC(=O)C2CC(=O)N(c3ccc(C(C)C)cc3)C2)cc1 (stereo not given) , and I need its recorded Potency.
Output line: inactive

Others:
Input line: What Potency value was documented for this molecule, CCOc1ccc(NC(=O)CCC(=O)N2CC(C)Oc3ccc(C)cc32)cc1 (stereo not given) ?
Output line: inactive

Input line: I would be grateful if you could share the reported Potency for CCC(C)NC(=O)C1c2ccccc2C(=O)N1Cc1ccccc1 (stereo not given) .
Output line: inactive

Input line: Value lookup for Potency; key = `Cc1ccc2nc(COc3cccc(NC(=O)c4ccccc4Cl)c3)cc(=O)n2c1`
Output line: inactive

Input line: # lookup: Potency of `O=C(NCCc1csc(-c2ccc(C(F)(F)F)cc2)n1)C(=O)Nc1ccc(F)c(Cl)c1`
Output line: inactive

Input line: So what does the record say about Potency for `COc1ccc(C2=NC(c3ccncc3)=Nc3ccc(Br)cc3N2)cc1` ?
Output line: inactive

Input line: State the recorded Potency for this entry: COc1cccc(N2C(=O)C3CCCN3C2c2ccc(F)cc2)c1 (stereo not given)
Output line: inactive

Input line: Reported Potency, molecule `Oc1ccc2ccccc2c1N=Nc1nccs1` : ____
Output line: 17.8 µM (active)

Input line: What value of Potency has been reported for the following molecule? `COc1cc(C(=O)N2CCN(C(=O)COc3cccc(C)c3)CC2)cc(OC)c1OC`
Output line: inactive

Input line: Record request: Potency value, item `COc1ccc(N2CCN(Cc3nc4c(c(=O)[nH]c(=O)n4C)n3Cc3ccc(Cl)cc3)CC2)cc1`
Output line: inactive
